# Test system: Enterococcus faecium
# PROCEDURE_DETAILS: Antibacterial activity against vancomycin-resistant Enterococcus faecium VRA
# Type: functional
So basically: is MIC under 4 µg/mL? Then Y. Not under? Then N.

Regarding `CC(=O)NC[C@H]1CN(c2ccc(N3CCOCC3)c(F)c2)C(=O)O1` , kindly confirm whether its MIC is beneath 4 µg/mL.
Y

Item: Cc1ccc(C(c2[nH]c3ccccc3c2CCOC(=O)c2ccccc2)c2c(O)c3ccccc3oc2=O)cc1 (stereo not drawn)
N

Item: COc1ccccc1C(=O)OCCc1c(C(c2cccc(Br)c2)c2c(O)c3ccccc3n(C)c2=O)[nH]c2ccccc12 (stereo not drawn)
N

Item: COc1ccc(C(c2[nH]c3ccccc3c2CCOC(=O)c2ccccc2)c2c(O)c3ccccc3oc2=O)cc1 (stereo not drawn)
N

Item: O=C(OCCc1c(C(c2ccc(OC(F)(F)F)cc2)c2c(O)c3cc(Cl)ccc3oc2=O)[nH]c2ccccc12)c1ccccc1 (stereo not drawn)
Y

Item: Cn1c(=O)c(C(c2ccc(OC(F)(F)F)cc2)c2[nH]c3ccccc3c2CCOC(=O)C2CCCCC2)c(O)c2ccccc21 (stereo not drawn)
Y

Item: COc1ccccc1C(=O)OCCc1c(C(c2cncc(Br)c2)c2c(O)c3ccccc3oc2=O)[nH]c2ccccc12 (stereo not drawn)
N
